system: E. coli wild-type GFP strain growth, fluorescence, 24 h; assay: wild-type E. coli growth inhibition versus H69 humanized strain – H69 mutant RFP, wild-type GFP, cherry-pick, dose response (AID 977621);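 also: wild-type GFP and H69 mutant RFP strains grown together 50/50 in each well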
Results filed as inconclusive are left out. Activity calls are given as the source filed them.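 The calls were made as follows: active = Wild-type ribosome reporter drop at least double the humanized mutant ribosome reporter drop, growth loss under a set limit; inconclusive = no clear call, values can overlap the other calls; inactive = the rest.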
experimental_endpoint: AC50

Reported AC50 for O=C1CSC(c2cccnc2)N1Cc1ccc(Cl)c(Cl)c1 (stereo unspecified) : what is it?
> 100 µM (inactive)

Further, for Cc1ccc(S(=O)(=O)Nc2ccccc2CNc2ccccn2)cc1 ?
> 100 µM (inactive)

Follow-up item: O=[N+]([O-])c1ccc2nc(-c3ccccc3[N+](=O)[O-])[nH]c2c1
> 100 µM (inactive)

Same again, this time with CCOc1ccc(OCc2cccc(C(=O)O)c2)cc1
> 100 µM (inactive)

Further, for CO[C@@H]1CN(C)C(=O)c2cc(NC(=O)C3CCCC3)ccc2OC[C@@H](C)N(C(=O)Nc2ccc(C(F)(F)F)cc2)C[C@H]1C ?
> 100 µM (inactive)
